Tested on: MDA-MB-231
Test Name: In vitro antiproliferative assay (MTT), MDA-MB-231
Type: cell-based
Measurement Setup: Homo sapiens, 72 h
Parameter Measured: IC50 (nM)
Could you give me the number in nM? Just the number is fine.

Ask: Request body: readout IC50, system MDA-MB-231, query O=C(CCCCCCC(=O)Nc1nc2ccc(OC(F)(F)F)cc2s1)NO [Compound 1] . Return the value.
Result: 770

----------
Measurement Target: HDAC2 (Homo sapiens, UniProt Q92769)
Sequence (Q92769 whole entry, species assumed): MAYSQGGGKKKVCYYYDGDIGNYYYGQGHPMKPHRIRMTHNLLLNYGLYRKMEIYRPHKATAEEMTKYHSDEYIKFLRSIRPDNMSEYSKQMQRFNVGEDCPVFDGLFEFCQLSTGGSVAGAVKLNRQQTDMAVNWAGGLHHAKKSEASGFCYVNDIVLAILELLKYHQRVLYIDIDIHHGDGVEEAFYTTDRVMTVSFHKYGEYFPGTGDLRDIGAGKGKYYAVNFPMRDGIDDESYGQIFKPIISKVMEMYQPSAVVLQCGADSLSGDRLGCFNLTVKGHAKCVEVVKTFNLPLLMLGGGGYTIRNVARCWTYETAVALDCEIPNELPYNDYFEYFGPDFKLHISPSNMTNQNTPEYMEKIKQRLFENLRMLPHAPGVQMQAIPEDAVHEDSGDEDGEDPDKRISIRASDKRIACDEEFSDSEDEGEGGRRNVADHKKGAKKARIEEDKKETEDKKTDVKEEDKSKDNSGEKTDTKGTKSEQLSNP
Parameter Measured: IC50 (nM)
Could you give me the number in nM? Just the number is fine.

Ask: // returns reported IC50 for input O=C(CCCCCCC(=O)Nc1nc2ccc(OC(F)(F)F)cc2s1)NO [Compound 1]
Result: 330

All figures here come from paper PMC7375020.
